# Protocol text: Volume distribution in dog after 2 mg/kg by oral and 0.5 mg/kg by intravenous administration
# Type: ADME, organism-based, Canis lupus familiaris
# Measurement setup: in vivo, read-out: Vdss
Outcome measure: Vd (L/kg)

I: CCN(C(=O)OCc1ccccc1)C1CCN(C[C@H]2CN(C(=O)c3ccccc3Cl)C[C@@H]2c2ccccc2)CC1
II: C=CCN(C(=O)OCc1ccc([N+](=O)[O-])cc1)C1CCN(CC[C@](C)(CN(C)S(=O)(=O)c2ccccc2)c2ccccc2)CC1
Consider entries I and II . Which has the numerically lower Vd? Use the label to indicate which entry you chose.
I
(I: 1 L/kg, II: 14.1 L/kg)
